# Tested on: Soybean
# Assay comment: Selective post-emergent greenhouse test, Soybean (crop injury)
# Type: in vivo
# Applied conditions: Glycine max, post-emergence, 336 h, 0.32 lbs/acre, 2 weeks, read-out: % Control Soybean
# Method: So as to illustrate clearly the phytotoxic properties of the various active ingredients of the present invention, a group of controlled greenhouse experiments is described below. Various species of plants, both broadleaf weeds and valuable crops, were planted in beds of good agricultural soil in a greenhouse. […] After a period of 2 weeks the selective effect of the test ingredient on the plants was evaluated by a comparison with the control group of plants.
Form field: plant injury at 358.672 g/ha (one value per entry).
# value in %; strip the unit string

For orientation, consider the following solved cases.
For this compound ( CC(C)N1C(=O)c2ccccc2N(C(=O)CCl)S1(=O)=O ), measured plant injury at 358.672 g/ha is 10

For this compound ( COC(=O)CCC(=O)N1c2ccccc2C(=O)N(C(C)C)S1(=O)=O [drawing 13] ), measured plant injury at 358.672 g/ha is 0

For this compound ( CC(Cl)C(=O)N1c2ccccc2C(=O)N(C(C)C)S1(=O)=O (centres unmarked) [COCHClCH3] ), measured plant injury at 358.672 g/ha is 0

For this compound ( CCC(=O)N1c2ccccc2C(=O)N(C(C)C)S1(=O)=O ), measured plant injury at 358.672 g/ha is 0

Next up:
For this compound ( CCCCCCCCCCCC(=O)N1c2ccccc2C(=O)N(C(C)C)S1(=O)=O ), measured plant injury at 358.672 g/ha is 0

###

# Test system: Pig Weed
# Assay comment: General post-emergent herbicidal activity at 10 lbs/acre, Pig Weed
# Type: in vivo
# Applied conditions: post-emergence, 336 h
Form field: pest or weed control at 11208.5 g/ha (one value per entry).
# value in %; strip the unit string

For this compound ( CC(C)OC(=O)N1c2ccccc2C(=O)N(C(C)C)S1(=O)=O ), measured pest or weed control at 11208.5 g/ha is 0

Next up:
For this compound ( COC(=O)N1c2ccccc2C(=O)N(C(C)C)S1(=O)=O ), measured pest or weed control at 11208.5 g/ha is 100

###

# Test system: Velvet Leaf
# Assay comment: Selective post-emergent greenhouse test, Velvet Leaf
# Type: in vivo
# Applied conditions: post-emergence, 336 h, 0.63 lbs/acre, 2 weeks
Form field: pest or weed control at 706.135 g/ha (one value per entry).
# value in %; strip the unit string

For orientation, consider the following solved cases.
For this molecule ( CC(C)N1C(=O)c2ccccc2N(C(=O)CCl)S1(=O)=O [COCH2 Cl] ), measured pest or weed control at 706.135 g/ha is 100

For this molecule ( CC=CC(=O)N1c2ccccc2C(=O)N(C(C)C)S1(=O)=O [COCHCHCH3] ), measured pest or weed control at 706.135 g/ha is 100

For this molecule ( CC(C)N1C(=O)c2ccccc2N(C(=O)C2CCCCC2)S1(=O)=O ), measured pest or weed control at 706.135 g/ha is 100

For this molecule ( CC(C)N1C(=O)c2ccccc2N(C(=O)c2ccccc2)S1(=O)=O ), measured pest or weed control at 706.135 g/ha is 0

For this molecule ( CCC(C)OC(=O)N1c2ccccc2C(=O)N(C(C)C)S1(=O)=O (stereo not shown) ), measured pest or weed control at 706.135 g/ha is 100

For this molecule ( CC(C)N1C(=O)c2ccccc2N(S(=O)(=O)c2ccccc2)S1(=O)=O ), measured pest or weed control at 706.135 g/ha is 30

For this molecule ( CCOC(=O)N1c2ccccc2C(=O)N(C(C)C)S1(=O)=O [CO2 CH2 CH3] ), measured pest or weed control at 706.135 g/ha is 100

For this molecule ( CC(=O)N1c2ccccc2C(=O)N(C(C)C)S1(=O)=O [COCH3] ), measured pest or weed control at 706.135 g/ha is 100

Others:
For this molecule ( CC(Cl)C(=O)N1c2ccccc2C(=O)N(C(C)C)S1(=O)=O (stereo not shown) [COCHClCH3] ), measured pest or weed control at 706.135 g/ha is 100

For this molecule ( CCN(CC)C(=O)N1c2ccccc2C(=O)N(C(C)C)S1(=O)=O [CON(C2 H5)2] ), measured pest or weed control at 706.135 g/ha is 20

For this molecule ( CCCCCCCCCCCC(=O)N1c2ccccc2C(=O)N(C(C)C)S1(=O)=O [CO(CH2)10 CH3] ), measured pest or weed control at 706.135 g/ha is 70

For this molecule ( CC(C)N1C(=O)c2ccccc2N(C(=O)OCCCl)S1(=O)=O [CO2 CH2 CH2 Cl] ), measured pest or weed control at 706.135 g/ha is 100

###

# Test system: Velvet Leaf
# Assay comment: Selective post-emergent greenhouse test, Velvet Leaf
# Type: in vivo
# Applied conditions: post-emergence, 336 h, 0.63 lbs/acre, 2 weeks
Form field: pest or weed control at 706.135 g/ha (one value per entry).
# value in %; strip the unit string

For orientation, consider the following solved cases.
For this compound ( CC(C)N1C(=O)c2ccccc2N(C(=O)CC(C)(C)C)S1(=O)=O [COCH2 C(CH3)3] ), measured pest or weed control at 706.135 g/ha is 100

For this compound ( COC(=O)N1c2ccccc2C(=O)N(C(C)C)S1(=O)=O [CO2 CH3] ), measured pest or weed control at 706.135 g/ha is 100

For this compound ( CC(C)N1C(=O)c2ccccc2N(C(=O)N(C)C)S1(=O)=O [CON(CH3)2] ), measured pest or weed control at 706.135 g/ha is 95

Others:
For this compound ( CCSC(=O)N1c2ccccc2C(=O)N(C(C)C)S1(=O)=O [COSCH2 CH3] ), measured pest or weed control at 706.135 g/ha is 100
